Where do the numbers come from? From paper PMC11500415.

Molecular target: T1, SCREAM (SCRM), recombinant full-length protein (1-494) (A. thaliana, UniProt Q9LSE2 1-494)
T1 construct: SCRM (ICE1), A. thaliana, residues 1-494; called full-length in the results; The methods describe thrombin removal of GST for all recombinant proteins; For the BLI runs of SCRM with MUTE one partner must have kept GST (anti-GST probes); also called ICE1; source: E. coli BL21, purified (glutathione resin, thrombin digestion, Superdex-200); not shown: GST, N-terminal, cleaved
T1 sequence (looked up): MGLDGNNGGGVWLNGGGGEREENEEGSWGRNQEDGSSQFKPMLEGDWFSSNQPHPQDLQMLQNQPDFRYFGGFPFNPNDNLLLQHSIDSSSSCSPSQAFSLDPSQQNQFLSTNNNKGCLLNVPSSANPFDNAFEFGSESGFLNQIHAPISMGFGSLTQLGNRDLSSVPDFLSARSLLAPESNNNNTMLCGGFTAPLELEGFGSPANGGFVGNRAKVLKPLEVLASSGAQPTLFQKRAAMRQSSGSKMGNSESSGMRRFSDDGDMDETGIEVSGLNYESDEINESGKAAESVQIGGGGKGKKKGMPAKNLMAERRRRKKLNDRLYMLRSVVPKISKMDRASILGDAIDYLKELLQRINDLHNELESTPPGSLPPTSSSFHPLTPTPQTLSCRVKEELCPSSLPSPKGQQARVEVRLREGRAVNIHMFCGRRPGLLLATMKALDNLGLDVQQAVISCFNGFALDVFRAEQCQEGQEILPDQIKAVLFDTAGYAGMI
Experiment: BLI; SCRM with MUTE or MUTE mutants, no compound; Octet Red96, anti-GST probes loaded with 500 nM GST-tagged protein; 30 °C; 1x PBS, 2% DMSO, 0.02% Tween20; 1:1 model; KD (SS) from steady-state analysis
Conditions: both partners purified
Documented kon across a set of binders

{"binder": "MUTE, recombinant full-length protein (1-202), as used in BLI with SCRM (natural protein, A. thaliana, UniProt Q9M8K6 1-202, looked up, BLI probes were anti-GST and loaded with 500 nM GST-tagged protein; source: E. coli BL21, purified (glutathione resin)) MSHIAVERNRRRQMNEHLKSLRSLTPCFYIKRGDQASIIGGVIEFIKELQQLVQVLESKKRRKTLNRPSFPYDHQTIEPSSLGAATTRVPFSRIENVMTTSTFKEVGACCNSPHANVEAKISGSNVVLRVVSRRIVGQLVKIISVLEKLSFQVLHLNISSMEETVLYFFVVKIGLECHLSLEELTLEVQKSFVSDEVIVSTN", "kon [M⁻¹ s⁻¹]": 24200}
{"binder": "MUTE_R133A_R134A_E162A_E163A, recombinant (natural protein, A. thaliana, UniProt Q9M8K6 1-202, looked up, MUTE, A. thaliana, with R133A, R134A, E162A and E163A; source: E. coli BL21, purified (glutathione resin)) MSHIAVERNRRRQMNEHLKSLRSLTPCFYIKRGDQASIIGGVIEFIKELQQLVQVLESKKRRKTLNRPSFPYDHQTIEPSSLGAATTRVPFSRIENVMTTSTFKEVGACCNSPHANVEAKISGSNVVLRVVSAAIVGQLVKIISVLEKLSFQVLHLNISSMAATVLYFFVVKIGLECHLSLEELTLEVQKSFVSDEVIVSTN", "kon [M⁻¹ s⁻¹]": 15600}
{"binder": "MUTE_E162A_E163A, recombinant (natural protein, A. thaliana, UniProt Q9M8K6 1-202, looked up, MUTE, A. thaliana, with E162A and E163A; source: E. coli BL21, purified (glutathione resin)) MSHIAVERNRRRQMNEHLKSLRSLTPCFYIKRGDQASIIGGVIEFIKELQQLVQVLESKKRRKTLNRPSFPYDHQTIEPSSLGAATTRVPFSRIENVMTTSTFKEVGACCNSPHANVEAKISGSNVVLRVVSRRIVGQLVKIISVLEKLSFQVLHLNISSMAATVLYFFVVKIGLECHLSLEELTLEVQKSFVSDEVIVSTN", "kon [M⁻¹ s⁻¹]": 29000}
{"binder": "MUTE_R133A_R134A, recombinant (natural protein, A. thaliana, UniProt Q9M8K6 1-202, looked up, MUTE, A. thaliana, with R133A and R134A; source: E. coli BL21, purified (glutathione resin)) MSHIAVERNRRRQMNEHLKSLRSLTPCFYIKRGDQASIIGGVIEFIKELQQLVQVLESKKRRKTLNRPSFPYDHQTIEPSSLGAATTRVPFSRIENVMTTSTFKEVGACCNSPHANVEAKISGSNVVLRVVSAAIVGQLVKIISVLEKLSFQVLHLNISSMEETVLYFFVVKIGLECHLSLEELTLEVQKSFVSDEVIVSTN", "kon [M⁻¹ s⁻¹]": 11300}
